Test system: RPMI-8226 leukemia
Assay: NCI-60 one-dose screen, 48 h (100 = growth as untreated, 0 = no growth, -100 = all killed)
Conditions: 10 µM unless noted
Experimental: Growth inhibition of the RPMI-8226 human tumor cell line is measured as a screen for anti-cancer activity. Cells are grown in 96 well plates and exposed to the test compound for 48 hours. Compounds are tested at a single concentration, which is 10^-5 M for most compounds. The reported endpoint is percent growth (GI% or GIPRCNT), where numbers from 0 - 100% represent growth inhibition, and numbers from -100% - 0 represent cell death. For example, a value of 40 represents 60% growth inhibition. […]
The panel holds about 83,000 compounds, 20% with a hit somewhere; the sample as a whole holds those more often.
param class (str): category from growth; see ranges lower: < 40%; middle: ≥ 40% and < 80%; upper: ≥ 80%

N#CC1=C(N)Oc2c(cnn2-c2ccc([N+](=O)[O-])cc2[N+](=O)[O-])C1c1ccccc1 (centres undefined); upper
Oc1ccc(OCCOc2ccc(O)cc2)cc1; middle
O=C(/C=C(/C=C/c1coc2ccccc12)OB(F)F)/C=C/c1coc2ccccc12; upper
CC(=O)O[C@H]1Cc2c([nH]c3ccccc23)[C@@H](c2ccc(Cl)cc2)N1C(=O)CCNC(C)(C)C; middle
COc1ccc(N2CCN(c3ccc(NC4=C(Cl)C(=O)c5ncccc5C4=O)cc3)CC2)cc1; lower
O=C(Cc1ccc(/C=C/C(=O)c2nccs2)cc1)Nc1ccccc1; middle
CCOc1ccc(Nc2nc(-c3ccc4c(c3)NC(=O)CO4)cs2)cc1; lower

Please examine the following record next.
Place this molecule in its band: COC(=O)CNC(=O)[C@]12CCC(C)(C)C[C@H]1C1=CC[C@@H]3[C@@]4(C)Cc5c([nH]c6ccccc56)C(C)(C)[C@@H]4CC[C@@]3(C)[C@]1(C)CC2
middle

Taken from PubChem BioAssay (NCI).
